substrate: O=C(O)C(=O)C[C@H](O)CO; assay: purified protein, by the assay type; parameters: coupled assay with PpKGSADH, NADH formation at 340 nm, Michaelis-Menten fit, 25 °C, pH 7.5; conditions: pH 7.5; 25.0 °C
endpoint: kcat
Give me the value, and tack the unit on after it.

Let me know recorded kcat for AbL-KdpD (Azospirillum brasilense) (protein, N-terminal His6 tag (kept), codon-optimised synthetic gene, E. coli BL21(DE3), HisTrap purified, lower purity) MTSSSTPRHRGIFPVVPTTFADTGELDLASQKRAVDFMIDAGSDGLCILANFSEQFAITDDERDVLTRTILEHVAGRVPVIVTTSHYSTQVCAARSLRAQQLGAAMVMAMPPYHGATFRVPEAQIFEFYARVSDAIAIPIMVQDAPASGTALSAPFLARMAREIEQVAYFKIETPGAANKLRELIRLGGDAIEGPWDGEEAITLLADLHAGATGAMTGGGFPDGIRPILEAWREGRHDDAYARYQAWLPLINHENRQSGILTAKALMREGGVIASERPRHPMPELHPDTRAELLAIARRLDPLVLRWAH , thanks.
6.65 s⁻¹
